assay: Metabolic (microsomal) stability assay, human liver microsomes (HLM); type: in vitro ADME; settings: predicted clearance as percent of liver blood flow, 1 μM
// values below are reported HLM QH
Report the figure in % without appending any unit label.

>>> value_measured("C[C@H](Oc1cc(-n2ccncc2=O)nc(-c2noc3c2CCC[C@@]32CCCc3sc(N)c(C#N)c32)n1)[C@@H]1CCCN1C")
75
>>> value_measured("C[C@H](Oc1cc(N2CCN(C)C3(CC3)C2)nc(-c2noc3c2CCC[C@@]32CCCc3sc(N)c(C#N)c32)n1)[C@@H]1C[C@@H](F)CN1C")
45
>>> value_measured("C[C@H](Oc1nc(-c2noc3c2CCC[C@@]32CCCc3sc(N)c(C#N)c32)nc(N2CCN(C)C3(CC3)C2)c1Cl)[C@@H]1C[C@@H](F)CN1C")
63
>>> value_measured("C[C@H](Oc1nc(-c2noc3c2CCC[C@@]32CCCc3sc(N)c(C#N)c32)cc(N2C[C@H](C)N[C@@H](C)C2)n1)[C@@H]1CCCN1C")
27
>>> value_measured("C[C@H](Oc1cc(-n2nccn2)nc(-c2onc3c2CCC[C@@]32CCCc3sc(N)c(C#N)c32)n1)[C@@H]1CCCN1C")
27

[ask] Which HLM QH is reported for this compound? C[C@H](Oc1cc(-c2cn(C)nn2)nc(-c2onc3c2CCC[C@@]32CCCc3sc(N)c(C#N)c32)n1)[C@@H]1CCCN1C
[reply] 31

[ask] // query: C[C@H](Oc1cc(N2CCNC3(COC3)C2)nc(-c2noc3c2CCC[C@@]32CCCc3sc(N)c(C#N)c32)n1)[C@@H]1C[C@@H](F)CN1C
[reply] 64

* * *

Assay: Caco-2 assay (permeability PappAB, PappBA, efflux ratio)
Assay type: in vitro ADME
Conditions: human, Caco-2; apical to basolateral; 10 μM test compound, pH 7.4
Procedure: The assay provides information on the potential of a compound to pass the cell membrane, on the extent of oral absorption as well as on whether the compound is actively transported by uptake and/or efflux transporters. […] Concentrations of test compounds in samples were measured by HPLC/MS/MS, samples from the donor compartment were diluted 1:50 (v:v) with assay buffer, samples from receiver compartment were measured without dilution. […]
Measurement Type: Papp A→B at 90 min, 10 μM

Study these solved cases before continuing.
>>> value_measured("C[C@H](O)Cn1ncc(-c2cc(O[C@@H](C)[C@@H]3CCCN3C)nc(-c3noc4c3CCC[C@@]43CCCc4sc(N)c(C#N)c43)n2)n1 [II-134]")
"4 ×10⁻⁶ cm/s"
>>> value_measured("C[C@H](Oc1cc([C@H]2CCOC2)nc(-c2noc3c2CCC[C@@]32CCCc3sc(N)c(C#N)c32)n1)[C@@H]1CCCN1C [II-88]")
"12 ×10⁻⁶ cm/s"

[ask] Which Papp A→B at 90 min, 10 μM is reported for this compound? C[C@H](Oc1cc(N2CCN(C)C3(CC3)C2)nc(-c2noc3c2CCC[C@@]32CCCc3sc(N)c(C#N)c32)n1)[C@@H]1CCCN1C [II-171]
[reply] 3 ×10⁻⁶ cm/s

* * *

system: NCI-H2122 cells; assay: NCI-H2122 CTG proliferation assay (120 h) (NSCLC, G12C); assay type: cell-based; settings: Homo sapiens
pIC50: −log10 of the molar value.
Hi, to clarify the labels: YES covers pIC50 from 6 upward, NO covers anything below 6.

// below: answered compounds
>>> classification("C[C@H](Oc1cc(-n2ccnc2)nc(-c2noc3c2CCC[C@@]32CCCc3sc(N)c(C#N)c32)n1)[C@@H]1CCCN1C")
"YES"
>>> classification("C[C@H](O)Cn1ncc(-c2cc(O[C@@H](C)[C@@H]3CCCN3C)nc(-c3noc4c3CCC[C@@]43CCCc4sc(N)c(C#N)c43)n2)n1")
"NO"
>>> classification("C[C@H](Oc1cc(N2C[C@@H](N(C)C)[C@@H](O)C2)nc(-c2noc3c2CCC[C@@]32CCCc3sc(N)c(C#N)c32)n1)[C@@H]1CCCN1C")
"NO"

As a next step, examine the compound that follows.
[ask] Is it the case that C[C@H](Oc1cc(-c2ccn(C[C@@H](C)O)n2)nc(-c2noc3c2CCC[C@@]32CCCc3sc(N)c(C#N)c32)n1)[C@@H]1CCCN1C has pIC50 reaching or exceeding 6?
[reply] YES
